Test system: PRKACA-PRKAR2A interaction (SmBiT-PRKACA / LgBiT-PRKAR2A), protein kinase A
Parameters: NanoLuc complementation counter-screen in cell extract, PRKACA with PRKAR2A, loss of luminescence, detects NanoLuc interference
Settings: counter-screen for NanoLuc interference; 0.5 h, 20 µM; inhibitor
Where a name gives a salt, the structure may show the parent alone.

molecule | testTarget | endpointUnit | Inh (PKA)
CCOc1ccn(-c2ccc(F)cc2)c(=O)c1C(=O)Nc1ccc(Oc2ccnc(N)c2Cl)c(F)c1 | PRKACA-PRKAR2A interaction (SmBiT-PRKACA / LgBiT-PRKAR2A), protein kinase A | % | 68.15
COc1ccc2[nH]cc(CCNC(C)=O)c2c1 | PRKACA-PRKAR2A interaction (SmBiT-PRKACA / LgBiT-PRKAR2A), protein kinase A | % | -1.159
NC1=N[C@@]2(c3cc(NC(=O)c4ccc(F)cn4)ccc3F)COC[C@H]2CS1 | PRKACA-PRKAR2A interaction (SmBiT-PRKACA / LgBiT-PRKAR2A), protein kinase A | % | 5.898
C=CC(=O)N1C/C(=C\c2ccc([N+](=O)[O-])cc2)C(=O)/C(=C/c2ccc([N+](=O)[O-])cc2)C1 | PRKACA-PRKAR2A interaction (SmBiT-PRKACA / LgBiT-PRKAR2A), protein kinase A | % | 14.65
C1=N/C2=N/c3ccc(OCCN4CCCC4)c(c3)COC/C=C/COCc3cccc(c3)C(=C1)N2 [UM0142316:01, Pacritinib (SB1518)] | PRKACA-PRKAR2A interaction (SmBiT-PRKACA / LgBiT-PRKAR2A), protein kinase A | % | 30.05
Oc1c2ccccc2c2c3c(cccc13)N=N2 | PRKACA-PRKAR2A interaction (SmBiT-PRKACA / LgBiT-PRKAR2A), protein kinase A | % | 23.18
CC(=O)Nc1cccc(-n2c(=O)n(C3CC3)c(=O)c3c(Nc4ccc(I)cc4F)n(C)c(=O)c(C)c32)c1 | PRKACA-PRKAR2A interaction (SmBiT-PRKACA / LgBiT-PRKAR2A), protein kinase A | % | 2.214
Cc1ccccc1-n1c(Cn2cnc3c(N)ncnc32)nc2cccc(C)c2c1=O | PRKACA-PRKAR2A interaction (SmBiT-PRKACA / LgBiT-PRKAR2A), protein kinase A | % | 5.733
CC(=O)[C@]1(O)Cc2c(O)c3c(c(O)c2[C@@H](O[C@H]2C[C@H](N)[C@H](O)[C@H](C)O2)C1)C(=O)c1ccccc1C3=O [UM0141460:01, Idarubicin HCl] | PRKACA-PRKAR2A interaction (SmBiT-PRKACA / LgBiT-PRKAR2A), protein kinase A | % | 47.84
CC(C)=CC[C@@H](O)C1=CC(=O)c2c(O)ccc(O)c2C1=O | PRKACA-PRKAR2A interaction (SmBiT-PRKACA / LgBiT-PRKAR2A), protein kinase A | % | 46.09
C=CC(=O)Nc1cc2c(Nc3ccc(F)c(Cl)c3)ncnc2cc1OCCCN1CCOCC1 | PRKACA-PRKAR2A interaction (SmBiT-PRKACA / LgBiT-PRKAR2A), protein kinase A | % | 5.945
CCC(CC)O[C@@H]1C=C(C(=O)O)C[C@H](N)[C@H]1NC(C)=O | PRKACA-PRKAR2A interaction (SmBiT-PRKACA / LgBiT-PRKAR2A), protein kinase A | % | 1.334

###

System: PRKACA-PRKAR2A interaction (SmBiT-PRKACA / LgBiT-PRKAR2A), protein kinase A
Parameters: NanoLuc complementation counter-screen in cell extract, PRKACA with PRKAR2A, loss of luminescence, detects NanoLuc interference
Conditions: counter-screen for NanoLuc interference; 0.5 h, 20 µM; inhibitor
Counter-ions that a name gives are not always drawn.
Inh (PKA) values by entry
attributeMeasured: Inh (PKA) (%)

compound | endpointUnit | valueObserved
Cn1c(=O)c2nc[nH]c2n(C)c1=O [UM0132766:02, Theophylline] | % | -0.2913
O=C1Nc2ccc(I)cc2/C1=C/c1cc(Br)c(O)c(Br)c1 [UM0142240:01, GW5074] | % | 70.55
Nc1cccc2c1CN(C1CCC(=O)NC1=O)C2=O (stereo not shown) [UM0130980:03, Lenalidomide (CC-5013)] | % | -1.488
CC(C)(CCCCCC(O)CCCCCC(C)(C)C(=O)O)C(=O)O [UM0142125:01, ETC-1002] | % | 5.399
CN[C@@H](C)C(=O)N[C@H]1CN(C(=O)CC(C)C)CC[C@H]2CC[C@@H](C(=O)NC(c3ccccc3)c3ccccc3)N2C1=O [UM0141504:01, AT-406 (SM-406)] | % | 0.8145
CN(C)CCOC(C)(c1ccccc1)c1ccccn1 (stereo not shown) [UM0142354:01, Doxylamine Succinate] | % | 1.104
O=C1NC(=O)[C@@H](c2cn3c4c(cccc24)CCC3)[C@@H]1c1c[nH]c2ccccc12 [UM0141990:01, Tivantinib (ARQ 197)] | % | 34.28
O=C(NNc1nc2cc(F)ccc2n2cccc12)c1cnccn1 [UM0141448:01, SC 144] | % | 4.683
O=C(NCCN1CCOCC1)c1ccc(Cl)cc1 [UM0134186:02, Moclobemide (Ro 111163)] | % | 0.401
Cc1ccc2nc(NCCN)c3ncc(C)n3c2c1 [UM0142559:01, BMS-345541(free base)] | % | 1.467
O=C(c1ccc(Cl)cc1)N(Cc1ccccc1)C1CCCCC1 [UM0142831:01, FPS-ZM1] | % | 22.08
C#CCN(C)Cc1ccccc1 [UM0118374:03, Pargyline (hydrochloride)] | % | -0.007894
COc1cc([C@@H]2c3cc4c(cc3[C@H](O)[C@H]3COC(=O)[C@@H]23)OCO4)cc(OC)c1OC [UM0141523:01, AXL1717] | % | 8.722
CC(C)(C)NS(=O)(=O)c1cncc(-c2cc(F)c3nc(N)nn3c2)c1 [UM0141537:01, CZC24832] | % | 2.566
C[C@H]1COC2=C1C(=O)C(=O)c1c2ccc2c1CCCC2(C)C [UM0134017:02, Cryptotanshinone] | % | 20.28
O=C(NNc1ccccc1)c1ccncc1 [UM0141803:01, PluriSIn #1 (NSC 14613)] | % | 1.467
CN1C(C(=O)Nc2ccccn2)=C(O)c2ccccc2S1(=O)=O [UM0134086:02, Piroxicam] | % | 4.329
N=C(N)NC(=O)Cc1c(Cl)cccc1Cl [UM0141560:01, Guanfacine hydrochloride] | % | 4.541
CSC(=N)N [UM0119990:03, (S)-Methylisothiourea sulfate] | % | -0.9184

###

System: PRKACA-PRKAR2A interaction (SmBiT-PRKACA / LgBiT-PRKAR2A), protein kinase A
Parameters: NanoLuc complementation counter-screen in cell extract, PRKACA with PRKAR2A, loss of luminescence, detects NanoLuc interference
Conditions: counter-screen for NanoLuc interference, 0.5 h, 20 µM, inhibitor, Inh (PKA)

compound | endpointUnit | Inh (PKA)
CN(c1ncccc1CNc1nc(Nc2ccc3c(c2)CC(=O)N3)ncc1C(F)(F)F)S(C)(=O)=O [UM0141986:01, PF-00562271] | % | 56.79
CN1CCN(c2ccc3nc(-c4c(N)c5c(F)cccc5[nH]c4=O)[nH]c3c2)CC1 [UM0142698:01, Dovitinib (TKI258) Lactate] | % | 21.22
COc1ccc2c3c1O[C@H]1C[C@@H](O)C=C[C@@]31CCN(C)C2 [UM0132882:02, Galanthamine HBr] | % | 0.1906

###

Inhibition percent: recorded values
Target: MeCP2-TBL1 interaction (MeCP2-SmBiT / TBL1-LgBiT) (Mus musculus, UniProt Q9QXE7)
Construct: expressed in transfected cells; crude lysate used as a cell-free assay
Sequence (Q9QXE7 166-527): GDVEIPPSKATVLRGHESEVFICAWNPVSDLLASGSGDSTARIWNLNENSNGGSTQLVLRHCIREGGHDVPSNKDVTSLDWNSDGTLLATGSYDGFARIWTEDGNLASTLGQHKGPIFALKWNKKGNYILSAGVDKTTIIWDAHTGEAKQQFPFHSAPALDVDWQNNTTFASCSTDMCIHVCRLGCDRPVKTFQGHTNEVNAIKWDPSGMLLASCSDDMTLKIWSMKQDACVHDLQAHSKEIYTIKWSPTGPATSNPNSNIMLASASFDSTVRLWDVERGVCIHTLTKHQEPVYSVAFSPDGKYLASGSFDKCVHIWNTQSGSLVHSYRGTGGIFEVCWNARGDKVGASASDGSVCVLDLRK
Assay: MeCP2-TBL1 NanoLuc luciferase complementation assay (cell-free, extracts of transfected HEK293 cells);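 further: each compound tested at 20 µM final concentration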
Assay type: binding, human
Settings: primary screen of the Asinex library, sheet "Sargen output Asinex library", one well per compound

compound | testTarget | endpointUnit | Inhibition percent
CC(=O)N[C@@]12CN(C)CC[C@@H]1[C@@H](c1ccccc1)N(CC(=O)Nc1cccc(C)c1C)C2 | MeCP2-TBL1 interaction (MeCP2-SmBiT / TBL1-LgBiT) (Mus musculus, UniProt Q9QXE7) | % | -4.50
CC1(C)Oc2c(O)cccc2[C@H]2O[C@H]3CCN(CC(=O)N4CC(=O)Nc5ccccc54)[C@@H]3C[C@@H]21 | MeCP2-TBL1 interaction (MeCP2-SmBiT / TBL1-LgBiT) (Mus musculus, UniProt Q9QXE7) | % | 2.67
COc1ccc([C@@H]2C[C@]3(C)NC(=O)CCC[C@@H]3N2CC2(O)CCN(c3cccc(OC)c3)CC2)cc1 | MeCP2-TBL1 interaction (MeCP2-SmBiT / TBL1-LgBiT) (Mus musculus, UniProt Q9QXE7) | % | 1.71
Cc1nccn1Cc1ccccc1C(=O)N1CCCC(Cc2cccc3cccnc23)C1 (centres unmarked) | MeCP2-TBL1 interaction (MeCP2-SmBiT / TBL1-LgBiT) (Mus musculus, UniProt Q9QXE7) | % | -0.91
Cc1cccc(Oc2cncc(C3CCCN(C(=O)c4cccc(Cn5ccnc5C)c4)C3)n2)c1 (centres unmarked) | MeCP2-TBL1 interaction (MeCP2-SmBiT / TBL1-LgBiT) (Mus musculus, UniProt Q9QXE7) | % | 0.07
